Reported inhibition values for a set of molecules
Assayed target: Tyrosine-protein kinase CSK (Homo sapiens) (UniProt P41240)
Sequence (P41240 2-450 limits assumed): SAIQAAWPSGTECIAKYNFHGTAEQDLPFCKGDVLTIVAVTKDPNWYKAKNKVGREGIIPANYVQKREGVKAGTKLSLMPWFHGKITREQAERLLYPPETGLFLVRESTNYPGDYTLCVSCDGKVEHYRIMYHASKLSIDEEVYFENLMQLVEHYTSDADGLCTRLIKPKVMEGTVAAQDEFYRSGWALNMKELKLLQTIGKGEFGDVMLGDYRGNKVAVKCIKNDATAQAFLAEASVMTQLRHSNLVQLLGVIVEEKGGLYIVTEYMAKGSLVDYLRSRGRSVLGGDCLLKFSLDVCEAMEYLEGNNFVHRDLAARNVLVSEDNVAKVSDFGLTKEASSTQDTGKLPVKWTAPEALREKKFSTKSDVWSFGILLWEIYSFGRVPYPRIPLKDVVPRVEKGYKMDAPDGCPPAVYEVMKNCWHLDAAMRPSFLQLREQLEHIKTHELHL
Assay remarks: Inhibition of CSK (unknown origin) at 500 nM
Please respond with the number in % and leave the unit unwritten.

Record excerpt, results attached:
Data request: inhibition lookup needed for C[C@@H](Nc1ncnc2sc(-c3ccccc3C(N)=O)cc12)c1ccccc1 , thanks.
Data returned: 12

Data request: Moving on to the next molecule: CN(C)CCNC(=O)c1ccc(-c2cc3c(N[C@H](CO)c4ccccc4)ncnc3s2)cc1
Data returned: 13

Data request: Moving on to the next molecule: COc1cc(C(N)=O)ccc1-c1cc2c(N[C@H](CO)c3ccccc3)ncnc2s1
Data returned: 12

Data request: Moving on to the next molecule: C#Cc1cccc(Nc2ncnc3sc(-c4ccc(CO)cc4OC)cc23)c1
Data returned: 8

As a next step, examine the molecule that follows.
Data request: inhibition lookup needed for C[C@@H](Nc1ncnc2sc(-c3ccc(C(=O)NCCN(C)C)cc3)cc12)c1ccccc1 , thanks.
Data returned: 10

###

Assayed target: UniProt:P08069
Sequence (P08069 31-736 limits assumed): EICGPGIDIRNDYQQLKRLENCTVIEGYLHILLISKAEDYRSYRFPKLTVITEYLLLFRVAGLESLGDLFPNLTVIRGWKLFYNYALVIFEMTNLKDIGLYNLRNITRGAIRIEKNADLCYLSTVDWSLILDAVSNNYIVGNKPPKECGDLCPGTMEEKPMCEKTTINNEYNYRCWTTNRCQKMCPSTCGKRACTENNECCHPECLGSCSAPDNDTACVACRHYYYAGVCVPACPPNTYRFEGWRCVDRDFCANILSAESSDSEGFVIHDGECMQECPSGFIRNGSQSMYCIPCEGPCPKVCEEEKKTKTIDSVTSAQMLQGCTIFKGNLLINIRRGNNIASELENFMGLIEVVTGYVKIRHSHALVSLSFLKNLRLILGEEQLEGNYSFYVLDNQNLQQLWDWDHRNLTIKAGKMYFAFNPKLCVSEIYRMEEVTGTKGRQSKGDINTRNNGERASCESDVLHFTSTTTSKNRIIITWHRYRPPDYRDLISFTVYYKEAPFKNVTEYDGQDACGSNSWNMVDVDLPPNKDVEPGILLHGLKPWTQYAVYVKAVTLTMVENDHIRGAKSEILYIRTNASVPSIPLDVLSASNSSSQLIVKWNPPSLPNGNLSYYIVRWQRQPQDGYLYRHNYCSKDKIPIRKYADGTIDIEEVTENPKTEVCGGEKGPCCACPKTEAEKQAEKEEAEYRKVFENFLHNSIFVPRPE
Sequence (P08069 741-1367 limits assumed): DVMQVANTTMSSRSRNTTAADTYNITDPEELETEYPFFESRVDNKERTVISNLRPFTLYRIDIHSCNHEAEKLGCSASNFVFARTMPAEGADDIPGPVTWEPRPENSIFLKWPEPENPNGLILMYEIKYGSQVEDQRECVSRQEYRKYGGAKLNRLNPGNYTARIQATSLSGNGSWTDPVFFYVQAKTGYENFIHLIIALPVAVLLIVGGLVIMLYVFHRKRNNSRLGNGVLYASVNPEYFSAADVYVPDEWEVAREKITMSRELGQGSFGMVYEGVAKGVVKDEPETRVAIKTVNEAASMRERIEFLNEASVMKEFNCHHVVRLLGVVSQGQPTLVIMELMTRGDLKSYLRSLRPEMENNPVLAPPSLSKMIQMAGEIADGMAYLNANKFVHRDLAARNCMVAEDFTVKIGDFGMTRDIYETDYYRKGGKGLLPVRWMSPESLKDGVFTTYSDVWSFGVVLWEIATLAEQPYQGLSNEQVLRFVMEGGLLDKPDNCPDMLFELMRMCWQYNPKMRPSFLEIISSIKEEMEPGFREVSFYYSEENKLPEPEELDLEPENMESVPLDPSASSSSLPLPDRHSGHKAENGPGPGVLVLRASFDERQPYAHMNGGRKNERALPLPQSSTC
Assay remarks: Inhibition of IGF1R (unknown origin) at 500 nM
Outcome measure: inhibition (%)
Please respond with the number in % and leave the unit unwritten.

Data request: Give the reported inhibition for COc1cc(CO)ccc1-c1cc2c(Nc3ccc(F)c(Cl)c3)ncnc2s1 (system: UniProt:P08069).
Data returned: -3

As a next step, examine the molecule that follows.
Data request: Give the reported inhibition for COc1cc(C(N)=O)ccc1-c1cc2c(N[C@H](CO)c3ccccc3)ncnc2s1 (system: UniProt:P08069).
Data returned: -9

###

Reported inhibition values for a set of compounds
Assayed target: Serine/threonine-protein kinase Nek1 (Homo sapiens) (UniProt Q96PY6)
Sequence (Q96PY6 whole entry): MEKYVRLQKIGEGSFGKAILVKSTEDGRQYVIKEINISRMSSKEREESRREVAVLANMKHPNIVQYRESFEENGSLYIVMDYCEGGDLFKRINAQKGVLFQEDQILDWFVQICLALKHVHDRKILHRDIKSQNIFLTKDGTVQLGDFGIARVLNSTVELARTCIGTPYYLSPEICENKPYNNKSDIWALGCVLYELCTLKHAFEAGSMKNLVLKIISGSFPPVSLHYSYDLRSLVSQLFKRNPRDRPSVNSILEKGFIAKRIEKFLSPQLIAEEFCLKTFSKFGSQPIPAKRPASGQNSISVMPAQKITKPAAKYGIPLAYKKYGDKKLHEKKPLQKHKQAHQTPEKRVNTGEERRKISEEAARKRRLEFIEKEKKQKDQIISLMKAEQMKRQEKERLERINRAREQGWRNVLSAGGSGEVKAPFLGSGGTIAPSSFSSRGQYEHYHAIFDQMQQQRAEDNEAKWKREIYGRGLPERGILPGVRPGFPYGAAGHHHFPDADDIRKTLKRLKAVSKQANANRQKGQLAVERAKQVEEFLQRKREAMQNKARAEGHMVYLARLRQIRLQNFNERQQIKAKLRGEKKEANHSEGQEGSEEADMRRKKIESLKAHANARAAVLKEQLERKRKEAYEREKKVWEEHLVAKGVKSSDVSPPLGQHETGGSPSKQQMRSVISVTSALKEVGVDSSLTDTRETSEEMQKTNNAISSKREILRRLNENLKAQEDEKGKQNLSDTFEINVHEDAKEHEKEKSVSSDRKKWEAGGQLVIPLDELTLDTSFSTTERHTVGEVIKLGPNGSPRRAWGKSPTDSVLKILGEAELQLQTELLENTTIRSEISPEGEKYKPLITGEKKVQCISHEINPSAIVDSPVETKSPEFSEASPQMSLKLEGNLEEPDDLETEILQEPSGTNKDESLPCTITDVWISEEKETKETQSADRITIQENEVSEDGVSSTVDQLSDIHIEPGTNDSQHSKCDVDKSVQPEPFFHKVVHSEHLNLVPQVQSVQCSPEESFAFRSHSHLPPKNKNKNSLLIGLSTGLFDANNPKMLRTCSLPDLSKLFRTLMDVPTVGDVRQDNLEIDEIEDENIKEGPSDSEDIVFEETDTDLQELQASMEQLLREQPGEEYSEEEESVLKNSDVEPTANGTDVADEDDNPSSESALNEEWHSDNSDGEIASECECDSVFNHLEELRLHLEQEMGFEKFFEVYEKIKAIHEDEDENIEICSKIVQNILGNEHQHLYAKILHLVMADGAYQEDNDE
Assay remarks: Inhibition of NEK1 (unknown origin) at 500 nM
Please respond with the number in % and leave the unit unwritten.

Record excerpt, results attached:
Data request: inhibition lookup needed for COc1cc(CO)ccc1-c1cc2c(N[C@H](CO)c3ccccc3)ncnc2s1 , thanks.
Data returned: 13

Data request: Moving on to the next compound: C#Cc1cccc(Nc2ncnc3sc(-c4ccc(CO)cc4OC)cc23)c1
Data returned: -6

Data request: Moving on to the next compound: COc1cc(C(N)=O)ccc1-c1cc2c(N[C@H](CO)c3ccccc3)ncnc2s1
Data returned: 3

As a next step, examine the compound that follows.
Data request: inhibition lookup needed for COc1ccc(C(=O)NCCN(C)C)cc1-c1cc2c(N[C@H](C)c3ccccc3)ncnc2s1 , thanks.
Data returned: -4

###

Assayed target: Focal adhesion kinase 1 (Homo sapiens) (UniProt Q05397)
Sequence (Q05397 2-1052 limits assumed): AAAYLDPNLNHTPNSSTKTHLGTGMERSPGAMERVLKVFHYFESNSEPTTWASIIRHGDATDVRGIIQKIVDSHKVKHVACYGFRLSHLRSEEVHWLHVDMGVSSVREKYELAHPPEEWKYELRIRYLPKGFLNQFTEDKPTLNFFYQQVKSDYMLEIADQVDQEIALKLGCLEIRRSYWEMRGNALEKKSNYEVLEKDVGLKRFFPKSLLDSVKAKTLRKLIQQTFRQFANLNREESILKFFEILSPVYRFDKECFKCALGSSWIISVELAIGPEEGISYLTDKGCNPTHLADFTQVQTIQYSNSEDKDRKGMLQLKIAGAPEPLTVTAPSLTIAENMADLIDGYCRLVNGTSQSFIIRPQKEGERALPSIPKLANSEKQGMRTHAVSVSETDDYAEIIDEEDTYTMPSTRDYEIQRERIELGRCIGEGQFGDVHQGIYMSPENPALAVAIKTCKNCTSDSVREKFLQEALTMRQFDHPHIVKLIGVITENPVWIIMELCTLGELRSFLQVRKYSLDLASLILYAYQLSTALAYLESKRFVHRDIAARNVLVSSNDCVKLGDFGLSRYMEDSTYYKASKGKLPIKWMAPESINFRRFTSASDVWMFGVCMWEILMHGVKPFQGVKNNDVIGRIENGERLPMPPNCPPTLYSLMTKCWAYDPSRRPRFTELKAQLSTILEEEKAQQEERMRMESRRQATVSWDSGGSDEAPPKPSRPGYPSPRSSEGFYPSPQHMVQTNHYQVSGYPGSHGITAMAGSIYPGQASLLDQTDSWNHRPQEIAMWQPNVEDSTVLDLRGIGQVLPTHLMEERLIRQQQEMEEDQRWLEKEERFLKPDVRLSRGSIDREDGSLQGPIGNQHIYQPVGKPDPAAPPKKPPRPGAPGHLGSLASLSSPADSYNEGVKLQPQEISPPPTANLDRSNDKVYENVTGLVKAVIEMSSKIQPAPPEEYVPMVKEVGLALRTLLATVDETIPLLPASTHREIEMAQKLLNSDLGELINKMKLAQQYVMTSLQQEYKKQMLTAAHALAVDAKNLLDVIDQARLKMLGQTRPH
Assay remarks: Inhibition of PTK2 (unknown origin) at 500 nM
Reported inhibition values for a set of compounds
Please respond with the number in % and leave the unit unwritten.

Data request: inhibition lookup needed for COc1ccc(C(=O)NCCN(C)C)cc1-c1cc2c(N[C@H](C)c3ccccc3)ncnc2s1 , thanks.
Data returned: 3

Data request: Moving on to the next compound: C[C@@H](Nc1ncnc2sc(-c3ccccc3C(N)=O)cc12)c1ccccc1
Data returned: 5

Data request: Moving on to the next compound: C#Cc1cccc(Nc2ncnc3cc(OCCOC)c(OCCOC)cc23)c1
Data returned: -3

***
Data request: inhibition lookup needed for CN(C)CCNC(=O)c1ccc(-c2cc3c(N[C@H](CO)c4ccccc4)ncnc3s2)cc1 , thanks.
Data returned: 7

Data request: Moving on to the next compound: COc1cc(CO)ccc1-c1cc2c(Nc3ccccc3)ncnc2s1
Data returned: 15

###

Assayed target: Vascular endothelial growth factor receptor 1 (Homo sapiens)
Assay remarks: Inhibition of FLT1 (unknown origin) at 500 nM
Reported inhibition values for a set of compounds
Please respond with the number in % and leave the unit unwritten.

Data request: inhibition lookup needed for CN(C)CCNC(=O)c1ccc(-c2cc3c(N[C@H](CO)c4ccccc4)ncnc3s2)cc1 , thanks.
Data returned: 5

Data request: Moving on to the next compound: C[C@@H](Nc1ncnc2sc(-c3ccc(C(=O)NCCN(C)C)cc3)cc12)c1ccccc1
Data returned: 1

Data request: Moving on to the next compound: C#Cc1cccc(Nc2ncnc3cc(OCCOC)c(OCCOC)cc23)c1 [ERLOTINIB]
Data returned: 17

Data request: Moving on to the next compound: COc1cc(CO)ccc1-c1cc2c(N[C@H](CO)c3ccccc3)ncnc2s1
Data returned: 1

Data request: Moving on to the next compound: COc1ccc(C(=O)NCCN(C)C)cc1-c1cc2c(N[C@H](C)c3ccccc3)ncnc2s1
Data returned: -8

Data request: Moving on to the next compound: COc1cc(CO)ccc1-c1cc2c(Nc3ccc(F)c(Cl)c3)ncnc2s1
Data returned: 2

###

Reported inhibition values for a set of compounds
Assayed target: Aurora kinase B (Homo sapiens) (UniProt Q96GD4)
Sequence (Q96GD4 whole entry): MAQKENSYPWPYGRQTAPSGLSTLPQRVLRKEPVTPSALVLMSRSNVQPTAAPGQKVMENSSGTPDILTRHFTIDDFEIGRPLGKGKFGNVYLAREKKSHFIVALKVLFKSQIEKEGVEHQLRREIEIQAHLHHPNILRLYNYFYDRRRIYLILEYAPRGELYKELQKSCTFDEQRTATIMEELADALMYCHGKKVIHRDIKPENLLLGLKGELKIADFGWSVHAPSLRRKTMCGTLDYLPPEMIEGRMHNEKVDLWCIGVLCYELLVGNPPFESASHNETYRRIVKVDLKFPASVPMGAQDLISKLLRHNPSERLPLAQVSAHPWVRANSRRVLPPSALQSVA
Assay remarks: Inhibition of AURKB (unknown origin) at 500 nM
Please respond with the number in % and leave the unit unwritten.

Record excerpt, results attached:
Data request: Give the reported inhibition for CN(C)CCNC(=O)c1ccc(-c2cc3c(N[C@H](CO)c4ccccc4)ncnc3s2)cc1 (system: Aurora kinase B (Homo sapiens) (UniProt Q96GD4)).
Data returned: 23

Data request: Moving on to the next compound: C#Cc1cccc(Nc2ncnc3cc(OCCOC)c(OCCOC)cc23)c1 [ERLOTINIB]
Data returned: 44

Data request: Moving on to the next compound: C#Cc1cccc(Nc2ncnc3sc(-c4ccc(CO)cc4OC)cc23)c1
Data returned: 21

Data request: Moving on to the next compound: COc1cc(C(N)=O)ccc1-c1cc2c(N[C@H](CO)c3ccccc3)ncnc2s1
Data returned: 6

As a next step, examine the compound that follows.
Data request: Give the reported inhibition for C[C@@H](Nc1ncnc2sc(-c3ccc(C(=O)NCCN(C)C)cc3)cc12)c1ccccc1 (system: Aurora kinase B (Homo sapiens) (UniProt Q96GD4)).
Data returned: 17

###

Assay remarks: Aqueous solubility of compound in 0.01 M PBS buffer at pH 7.4 after 2 hrs by turbidimetric assay
Type: physicochemical
Reported solubility kinetic at 2 h values for a set of compounds
Please respond with the number in µM and leave the unit unwritten.

Data request: solubility kinetic at 2 h lookup needed for CN(C)CCNC(=O)c1ccc(-c2cc3c(N[C@H](CO)c4ccccc4)ncnc3s2)cc1 , thanks.
Data returned: 65

Data request: Moving on to the next compound: COc1cc(CO)ccc1-c1cc2c(Nc3ccc(F)c(Cl)c3)ncnc2s1
Data returned: 2

Data request: Moving on to the next compound: C#Cc1cccc(Nc2ncnc3cc(OCCOC)c(OCCOC)cc23)c1 [ERLOTINIB]
Data returned: 20

As a next step, examine the compound that follows.
Data request: solubility kinetic at 2 h lookup needed for COc1cc(C(=O)NCCN(C)C)cc(OC)c1-c1cc2c(N[C@H](C)c3ccccc3)ncnc2s1 , thanks.
Data returned: 65

###

Assayed target: Mast/stem cell growth factor receptor Kit (Homo sapiens)
Assay remarks: Inhibition of KIT (unknown origin) at 500 nM
Reported inhibition values for a set of molecules
Please respond with the number in % and leave the unit unwritten.

Record excerpt, results attached:
Data request: inhibition lookup needed for COc1ccc(C(=O)NCCN(C)C)cc1-c1cc2c(N[C@H](C)c3ccccc3)ncnc2s1 , thanks.
Data returned: -1

Data request: Moving on to the next molecule: CN(C)CCNC(=O)c1ccc(-c2cc3c(N[C@H](CO)c4ccccc4)ncnc3s2)cc1
Data returned: 1

Data request: Moving on to the next molecule: COc1cc(CO)ccc1-c1cc2c(Nc3ccccc3)ncnc2s1
Data returned: 11

***
Data request: inhibition lookup needed for COc1cc(CO)ccc1-c1cc2c(Nc3ccc(F)c(Cl)c3)ncnc2s1 , thanks.
Data returned: 1

Data request: Moving on to the next molecule: C[C@@H](Nc1ncnc2sc(-c3ccc(C(=O)NCCN(C)C)cc3)cc12)c1ccccc1
Data returned: -5

###

Assayed target: Vascular endothelial growth factor receptor 3 (Homo sapiens)
Assay remarks: Inhibition of FLT4 (unknown origin) at 500 nM
Please use Met whenever inhibition is not below 3%, and Not met whenever it is.

Data request: // inclusive: inhibition at least 3%? input: C[C@@H](Nc1ncnc2sc(-c3ccc(C(=O)NCCN(C)C)cc3)cc12)c1ccccc1
Data returned: Met

Data request: Moving on to the next molecule: CN(C)CCNC(=O)c1ccc(-c2cc3c(N[C@H](CO)c4ccccc4)ncnc3s2)cc1
Data returned: Met

Data request: Moving on to the next molecule: C#Cc1cccc(Nc2ncnc3sc(-c4ccc(CO)cc4OC)cc23)c1
Data returned: Met

Data request: Moving on to the next molecule: COc1cc(C(N)=O)ccc1-c1cc2c(N[C@H](CO)c3ccccc3)ncnc2s1
Data returned: Met

Data request: Moving on to the next molecule: C[C@@H](Nc1ncnc2sc(-c3ccccc3C(N)=O)cc12)c1ccccc1
Data returned: Not met

Data request: Moving on to the next molecule: COc1cc(CO)ccc1-c1cc2c(Nc3ccc(F)c(Cl)c3)ncnc2s1
Data returned: Met

***
Data request: // inclusive: inhibition at least 3%? input: COc1cc(CO)ccc1-c1cc2c(N[C@H](CO)c3ccccc3)ncnc2s1
Data returned: Not met

Data request: Moving on to the next molecule: COc1cc(CO)ccc1-c1cc2c(Nc3ccccc3)ncnc2s1
Data returned: Met
